Tested on: lung carcinoma (HCC827)
assay_notes: MTT cytotoxicity assay, HCC827
Type: cell-based, human
conditions_used: 72 h of incubation
outcome_measure: IC50 (nM)
Respond with the bare value in nM.

// query Identify the measured IC50 of CCN(CC)C1=[S+][Au-][P+](c2ccccc2)(c2ccccc2)C[P+](c2ccccc2)(c2ccccc2)[Au-][S]1.O=S(=O)(O)C(F)(F)F [Compound 4, [Au2-dppm-dedt] (OTf)] for lung carcinoma (HCC827).
// result 480

====

Test system: human nasopharyngeal carcinoma (HONE1)
assay_notes: MTT cytotoxicity assay, HONE1
Assay type: cell-based
conditions_used: 72 h of incubation
outcome_measure: pIC50
API: returns pIC50 as number; meaning -log10 of concentration in mol/L.

CCN(CC)C1=[S+][Au-][P+](C2CCCCC2)(C2CCCCC2)C[P+](C2CCCCC2)(C2CCCCC2)[Au-][S]1.O=S(=O)(O)C(F)(F)F [Compound 3, [Au2-dcpm-dedt] (OTf)]    6.39

Next compound, pIC50 to be filled in.
// query Fill in: pIC50 of CCN(CC)C1=[S+][Au-][P+](c2ccccc2)(c2ccccc2)C[P+](c2ccccc2)(c2ccccc2)[Au-][S]1.O=S(=O)(O)C(F)(F)F [Compound 4, [Au2-dppm-dedt] (OTf)] is ___
// result 6.23
